These measurements were taken from paper PMC5298231.

Test system: erythrocytes infected with 3D7 trophozoites
Assay type: cell-based, Plasmodium falciparum
Details: sheet Ratio; Exp2, 3hr
Peptide text beside a SMILES is read from it.
Give measured Ratio of metabolite abundance, Exp2_3hr for each item. Keep answers brief.
Keep the answer to the number alone.

Query string: State the recorded Ratio of metabolite abundance, Exp2_3hr for this entry: N[C@@H](COP(=O)(O)O)C(=O)O
Result string: 0.7496

Query string: State the recorded Ratio of metabolite abundance, Exp2_3hr for this entry: O=C(O)[C@H](Cc1ccccc1)NC(=O)[C@H](Cc1cnc[nH]1)NC(=O)[C@@H]1CCCN1 [PHF] (H-Pro-His-Phe-OH)
Result string: 1.353

Query string: Which Ratio of metabolite abundance, Exp2_3hr value belongs to O=c1ccn([C@@H]2O[C@H](COP(=O)(O)O)[C@@H](O)[C@H]2O)c(=O)[nH]1 ?
Result string: 0.6514

Query string: # input compound: CC(O)C(=O)O (stereo not drawn) [Lactate] ; wanted: its Ratio of metabolite abundance, Exp2_3hr
Result string: 7.877

Query string: I'd like to know its Ratio of metabolite abundance, Exp2_3hr. The compound in question is O=P(O)(OC[C@H](O)CO)OC1[C@H](O)[C@H](O)C(O)[C@H](O)[C@H]1O (stereo partly drawn)
Result string: 1.0759

Query string: Any idea what its Ratio of metabolite abundance, Exp2_3hr is? The compound is O=P(O)(O)OC[C@H](O)CO [sn-Glycerol 3-phosphate]
Result string: 2.322

Query string: Would you kindly share the measured Ratio of metabolite abundance, Exp2_3hr for CC(=O)SCCNC(=O)CCNC(=O)[C@H](O)C(C)(C)COP(=O)(O)OP(=O)(O)OC[C@H]1O[C@@H](n2cnc3c(N)ncnc32)[C@H](O)[C@@H]1OP(=O)(O)O ?
Result string: 0.7538

Query string: Item under review: O=C[C@H](O)[C@H](O)COP(=O)(O)O [Erythrose 4-phosphate] . Reported Ratio of metabolite abundance, Exp2_3hr?
Result string: 0.9809

Query string: Fill in the blank: the reported Ratio of metabolite abundance, Exp2_3hr of NCCOP(=O)(O)OP(=O)(O)OC[C@H]1O[C@@H](n2ccc(N)nc2=O)[C@H](O)[C@@H]1O is ____.
Result string: 1.135

Query string: GET /values?readout=Ratio of metabolite abundance, Exp2_3hr&item= O=C(O)CC[C@H](NC(=O)[C@H](CCC(=O)O)NC(=O)[C@@H]1CCCN1)C(=O)O [PEE] (H-Pro-Glu-Glu-OH)
Result string: 0.8845

Query string: Ratio of metabolite abundance, Exp2_3hr for Nc1nc2c(ncn2[C@@H]2O[C@H](COP(=O)(O)OP(=O)(O)O)[C@@H](O)[C@H]2O)c(=O)[nH]1 ?
Result string: 0.5095

Query string: State the recorded Ratio of metabolite abundance, Exp2_3hr for this entry: Nc1nc2c(ncn2[C@@H]2O[C@H](COP(=O)(O)OP(=O)(O)O[C@H]3O[C@H](CO)[C@@H](O)[C@H](O)[C@@H]3O)[C@@H](O)[C@H]2O)c(=O)[nH]1
Result string: 0.7145

Query string: Name the recorded Ratio of metabolite abundance, Exp2_3hr for Cc1cc2nc3c(=O)[nH]c(=O)nc-3n(C[C@H](O)[C@H](O)[C@H](O)COP(=O)(O)OP(=O)(O)OC[C@H]3O[C@@H](n4cnc5c(N)ncnc54)[C@H](O)[C@@H]3O)c2cc1C .
Result string: 0.8156

Query string: Fill in: Ratio of metabolite abundance, Exp2_3hr of O=C(O)[C@H](O)COP(=O)(O)O [3-Phosho-D-glycerate] is ___
Result string: 0.9815

Query string: Quick one: Ratio of metabolite abundance, Exp2_3hr for NCCCC(=O)O [4-Aminobutanoate] ?
Result string: 2.342
